tested on: RXF 631; experiment: NCI tumour cell line growth inhibition, 48 h
The source made the active and inactive calls. Cut-off read from the data, not from the text of the source: active = GI50 up to about 1.1 µM and inactive = higher.
Experimental readout: GI50

COC(=O)c1ccccc1NC(=O)C(=O)NNC(=O)c1ccncc1
> 100 µM (inactive)
CCc1ccccc1NC(=O)C(=O)CC(=O)c1sc(Nc2ccccc2)nc1C
> 100 µM (inactive)
CC1=C(C(=O)NCc2ccccc2)C(c2ccccc2C)C(C(=O)NCc2ccccc2)=C(C)N1
42.1 µM (inactive)

# ---- query compound ----
Query :: Data request, read-out GI50, for CN(c1ccccc1)c1cc2ccccc2nn1
Result :: 34.1 µM (inactive)

* * *

test system: NCI-H226; test: NCI tumour cell line growth inhibition, 48 h
Activity calls are given as the source filed them. No stated cut-off is given here; in the data, active = GI50 up to about 1.1 µM and inactive = higher.
Catalogue of compounds with associated GI50

Query :: Dear colleague, I am looking for the recorded GI50 of the following compound: CCOP(=O)(/C=C\n1ccc(=O)[nH]c1=O)OCC
Result :: > 100 µM (inactive)

Query :: Look up GI50 for this compound: OC1COC2CC(Nc3ccccn3)OC12 (stereo unspecified)
Result :: > 100 µM (inactive)
